# System: mammalian cells
# EXPERIMENTAL_DETAILS: Arrayed SSAP library screening, cell viability by live cell counts via flow cytometry
# Assay type: cell-based
# Experimental: Each SSAP encoding plasmid was tested in duplicate, including a negative control (same plasmid encoding Flag_HA which is not expected to promote gene editing). Transfections were in 96-well plates and transfection efficiency was estimated to be 50%. Three days after transfection, mKate positive cells and cell viability were quantified across all replicates, along with positive (original RecT SSAP) and negative (Flag-HA control protein) controls. […]
Measured Cell Viability (Average, two targets) accompanies every entry in the list below.
Answer as a number with no unit attached.

{"columns": ["MOLECULE", "Cell Viability (Average, two targets)"],
 "data": [
  ["SSAP_158: SEQ ID NO: 327; Nakamurella lactea (protein, Nakamurella lacteal, Nakamurella lactea) ASNLAARAAEQVEQQTAPNRPPTIKEQIGRMESQFALAMPRGSEAAQLVRDAITAINTNPQLAECTPASVLGALMTCAQLGLRPGVLGHAWVLPFRSKGVMQAQLVIGYQGLVELAHRTGQVASLIAREVHERDHFDVDYGLADSLIHKPLLNGDRGPVTGYYAIVKFKGGGHSFIYASKADVEAHRDKFSKMKSFGPWVDNFDSMALKTVVRMLAKWMPKSTEFANAISADEGVRVDYSPTADVAQATEYVQPQLEEAPVEGVVVSEGGES", 0.9945],
  ["SSAP_172: SEQ ID NO: 341; Staphylococcus pettenkoferi (protein, listed as Staphylococcus pettenkoferi) ATQKDFKNQISQKETQQKQEVQKKKKGPRQQVSDLLDRMAPEIEKALPNHLSADRMARVAMTAVSSNPKLLECDPKSFIGAVMQSAQLGLEPNTALGEAYLVPYAGKVNFQLSYLGLINLATRSGQYKAIYAHEVYAEDEFRYQYGLHKDLIHKPVDNPKGKPIGYYAVYHLLNGGYDFVYWTTERIQKHAKKYSFAVQKGYQSPWNDEFDAMAKKTVLKDLLKYAPKSIEMNNAVRSDDKQSELSDEGVVIDVTNYDEENGEEK", 0.9046]
]}

As a next step, examine the molecule that follows.
Measured Cell Viability (Average, two targets), SSAP_184: SEQ ID NO: 353; Streptomyces scabiei (protein, listed as Streptomyces scabiei) DADRMARIALTLIRKNPDLATCSGESFLGALMTCSQLGFEPGSPTQEAFIVPYKGEATFQLGYQGMVTLFYQHPMASSVKVETVRENDYFEHEEGLEEKLVHRPCKTGPRGKAIAYYSVARLINGGRTFKVMYPAEIEERREKLPSKNSPAWRNSYDEMAKKTVLRNHFKALPKSAELARAMAHDGTVRTDWQPDAIDVPPEYLSEPQRPELGTGSTQ : 0.7361
